# Assay System: human PD-L1/His fusion protein (human, UniProt Q9NZQ7 19-239)
# Sequence (Q9NZQ7 19-239 limits assumed): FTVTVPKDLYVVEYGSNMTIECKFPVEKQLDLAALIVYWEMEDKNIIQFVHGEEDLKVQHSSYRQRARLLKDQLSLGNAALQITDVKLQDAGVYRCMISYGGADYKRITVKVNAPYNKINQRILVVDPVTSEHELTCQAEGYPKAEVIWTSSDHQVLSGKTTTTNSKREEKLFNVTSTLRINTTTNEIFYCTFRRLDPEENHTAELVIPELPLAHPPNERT
# Test Method Notes: BLI Octet RED96, antibody on AHC sensor, single conc. PD-L1/His; test group 4

{"Binder": "EM0005-90c(G55A) (antibody, human IgG1, V domains shown, Chimeric antibody with G55A in CDR-H2; also called HuEM0005-90C-G55A) VH: QVQLKQSGAELVRPGSSVKMSCKTSGYTFTSHSINWVKQRPGQGLEWIGYMYIGNAYTEYNEKFKGKATLTSDTSSTTAYMQLSSLTSEDSAIYFCAKITPVVAPYVMDYWGQGTSVTVSS VL: DIVMTQTHKFMSTSVGDRVSITCKASQDVGTAVAWYQQKPGQSPKLLIYWASTRHTGVPDRFTGSGSGTDFTLTISNVQSEDLADYFCQQYSSYPYTFGGGTKLELK", "Unit Abbrev": "s⁻¹", "koff": 0.00255}
{"Binder": "HuEM0005-87-21 (antibody, human IgG1, V domains shown) VH: EVQLVQSGAEVKKPGASVKVSCKASGYTFTDYYINWVRQAPGQGLEWMGETIPNTGGTTYNQKFKARVTMTVDTSTSTVYMELSSLRSEDTAVYYCARYQSGSPFAYWGQGTTVTVSS VL: DIVMTQSPATLSVSPGERATLSCKASQNVGTAVAWYQQKPGQAPRLLIYSASNRYTGVPDRFTGSGSGTDFTLTISSLQSEDFAVYYCQQHYSTPYTFGGGTKLEIK", "Unit Abbrev": "s⁻¹", "koff": 0.000522}
{"Binder": "HuEM0005-87-23 (antibody, human IgG1, V domains shown) VH: EVQLVQSGAEVKKPGASVKVSCKASGYTFTDYYINWVRQAPGQGLEWIGETIPNTGGTTYNQKFKARVTLTVDKSTSTVYMELSSLRSEDTAVYYCARYQSGSPFAYWGQGTTVTVSS VL: DIVMTQSPATLSVSPGERATLSCKASQNVGTAVAWYQQKPGQAPRLLIYSASNRYTGVPDRFTGSGSGTDFTLTISSLQSEDFAVYYCQQHYSTPYTFGGGTKLEIK", "Unit Abbrev": "s⁻¹", "koff": 0.000905}
